TGI values by entry
Tested on: HCT-15 colon
method.summary: NCI tumour cell line growth inhibition, 48 h
test.readout: TGI

{"compound": "CN(C)CCCn1nc(N)c2nc3cc(Cl)ccc3nc21", "result": "> 100 µM"}
{"compound": "O=c1[nH]nc(Cc2ccccc2)n1CCO", "result": "> 100 µM"}
{"compound": "C=C1CCC2C(C)(COC(=O)CC)C(OC(=O)CC)CCC2(C)C1C/C=C1/C(=O)OCC1OC(=O)CC (stereo not given)", "result": "6 µM"}
{"compound": "O=C1c2cc(Cl)ccc2NC(=NCCCl)C2CSCN12 (stereo not given)", "result": "> 100 µM"}
{"compound": "CC(=O)N=C1N(/C=C2\\C(=O)Oc3ccccc3C2=O)C(=O)/C(=C/c2ccc(Cl)cc2Cl)N1C", "result": "> 100 µM"}

###

Test system: SK-MEL-2 melanoma
method.summary: NCI tumour cell line growth inhibition, 48 h
Measured TGI by item
test.readout: TGI

{"compound": "CCOC(=N)CC(=O)c1ccccc1", "result": "> 100 µM"}
{"compound": "O=C(NCc1cccc2ccccc12)N/N=C\\c1ccc(Cl)cc1", "result": "> 100 µM"}
{"compound": "COc1cc(-c2nc(-c3nc4ccccc4[nH]3)cc3c2[nH]c2ccccc23)cc(OC)c1OC", "result": "> 100 µM"}
{"compound": "CCCCCCCCCCCCCCCC(=O)N(CCCCCCCCCCC(=O)O)CC(O)C(O)C(OC1OC(CO)C(O)C(O)C1O)C(O)CO (stereo not given)", "result": "43.5 µM"}
{"compound": "O=c1c(Cl)c(Cl)c(=O)c2sc3cc(Cl)ccc3[nH]c1=2", "result": "> 100 µM"}
{"compound": "O=C(N/N=C1/C(=O)c2c3ccccc3cc3cccc1c23)c1ccccc1", "result": "> 94 µM"}
{"compound": "CCOC(=O)CC(=O)Nc1cccc2[nH]cnc12", "result": "> 100 µM"}
{"compound": "CC1=C(C(=O)c2ccccc2)C23C(=O)N(c4ccccc4)C(=O)C2=C(O)C=CC3(O)N1 (stereo not given)", "result": "57.3 µM"}
{"compound": "COc1cc(CNc2ccccc2C(=O)N2CCN(C(=O)c3cc(-c4cc(OC)c(OC)c(OC)c4)n4nc(-c5ccccc5)cc4n3)CC2)cc(OC)c1OC", "result": "> 100 µM"}
{"compound": "CC(C)C(N)=O", "result": "> 5000 µM"}

###

Tested on: MDA-N
method.summary: NCI tumour cell line growth inhibition, 48 h

{"compound": "CC(=O)OCC1OC(Oc2cc(C)c(O)cc2C/C=C(\\C)CC/C=C(\\C)CC(=O)CC(C)C)C(O)C(OC(C)=O)C1OC(C)=O (stereo unspecified)", "experimental.target": "MDA-N", "scale.unit": "µM", "operator": ">", "TGI": 50}
{"compound": "CC1=Nc2sc3c(c2C2=NCCN12)CCCC3", "experimental.target": "MDA-N", "scale.unit": "µM", "operator": "=", "TGI": 44.2}
{"compound": "Clc1ccc(C2Nc3ccccc3C3=NCCN32)cc1 (stereo unspecified)", "experimental.target": "MDA-N", "scale.unit": "µM", "operator": "=", "TGI": 39.8}
{"compound": "CC[N+]1(C)CCC(O)(c2ccc(OC)cc2)C(C(=O)c2ccc(OC)cc2)C1 (stereo unspecified)", "experimental.target": "MDA-N", "scale.unit": "µM", "operator": "=", "TGI": 31.9}
{"compound": "O=C(O)CC1NCc2cc3ccccc3nc21 (stereo unspecified)", "experimental.target": "MDA-N", "scale.unit": "µM", "operator": ">", "TGI": 100}
{"compound": "COc1cc2c(=O)cnoc2cc1O", "experimental.target": "MDA-N", "scale.unit": "µM", "operator": ">", "TGI": 100}

###

System: EKVX NSCLC
method.summary: NCI tumour cell line growth inhibition, 48 h

{"compound": "COc1ccc(/C=N\\Nc2ccc([N+](=O)[O-])cn2)cc1OC", "TGI": "> 100 µM"}
{"compound": "C=C1C(=O)O[C@@H]2C[C@]3(C)CC[C@]4(C)[C@H](CC[C@@H]5[C@@]6(C)CCC(=O)C(C)(C)[C@@H]6CC[C@]54C)[C@H]3[C@H]12", "TGI": "38 µM"}
{"compound": "CC[N+]1(C)CCC(O)(c2ccc(OC)cc2)C(C(=O)c2ccc(OC)cc2)C1 (centres undefined)", "TGI": "41.6 µM"}
{"compound": "CNC(=O)Cc1nc(-c2cccc(NS(=O)(=O)c3c(F)cccc3F)c2F)c(-c2ccnc(Nc3ccccc3)n2)s1", "TGI": "> 50 µM"}
{"compound": "CCCCON1C[C@H](OC(C)=O)C(OC(C)=O)[C@H](OC(C)=O)C1 (some centres undefined)", "TGI": "> 100 µM"}
{"compound": "C/C=C/C1OC(O)(C(C)C(O)[C@H](C)C2OC(=O)/C(OC)=C/C(C)=C/[C@@H](C)[C@@H](O)[C@@H](C)C(O)C(C)C/C(C)=C/C=C/C2OC)C[C@@H](OC2CC(O)C(OC(N)=O)C(C)O2)C1C (some centres undefined)", "TGI": "8.37 µM"}
{"compound": "COc1cc(Nc2nc3ccccc3cc2C(=O)Nc2ccc(F)c(F)c2)cc(OC)c1OC", "TGI": "> 100 µM"}
{"compound": "COC(=O)Cc1ccc(Oc2cnc3cc(F)c(F)cc3n2)cc1", "TGI": "> 100 µM"}
{"compound": "Clc1ccc(C(SCc2ccccc2)SCc2ccccc2)cc1", "TGI": "> 10 µM"}
{"compound": "Oc1ccc(Cl)cc1CN1CCN(Cc2cc(Cl)ccc2O)C1", "TGI": "6.09 µM"}
{"compound": "O=C(NCc1cccc2ccccc12)N/N=C\\c1ccc(Cl)cc1", "TGI": "> 100 µM"}
{"compound": "Cc1cc(C)c(Cn2cnc3c(Cl)ncnc32)c(C)c1CCl", "TGI": "> 100 µM"}
{"compound": "O=c1c2cccc3cccc(c4n1CCN=4)c32", "TGI": "> 100 µM"}
{"compound": "Cc1csc(/N=C\\c2c(O)c3ccccc3oc2=O)n1", "TGI": "99.3 µM"}
{"compound": "CC1(CCC(=O)OC2CCCCC2)OCCO1", "TGI": "> 100 µM"}
{"compound": "COc1ccc(OC)c(NS(=O)(=O)c2ccc3nc(C)n(NS(=O)(=O)c4cc(OC)ccc4OC)c(=O)c3c2)c1", "TGI": "> 100 µM"}
{"compound": "O=C(O)C(Cl)(c1ccccc1)c1ccccc1", "TGI": "> 100 µM"}
{"compound": "COc1cc(CNc2ccccc2C(=O)N2CCN(C(=O)c3cc(-c4cc(OC)c(OC)c(OC)c4)n4nc(-c5ccccc5)cc4n3)CC2)cc(OC)c1OC", "TGI": "> 100 µM"}
{"compound": "FC(F)(F)C1(Br)C(c2ccccc2)=C1c1ccccc1", "TGI": "> 100 µM"}

###

System: IGROV1 ovarian
method.summary: NCI tumour cell line growth inhibition, 48 h

{"compound": "CC(=O)N=C1N(/C=C2\\C(=O)Oc3ccccc3C2=O)C(=O)/C(=C/c2ccc(Cl)cc2Cl)N1C", "TGI": "> 100 µM"}
{"compound": "CC1=C(C(=O)c2ccccc2)C23C(=O)N(c4ccccc4)C(=O)C2=C(O)C=CC3(O)N1 (stereo unspecified)", "TGI": "51.9 µM"}
{"compound": "O=C(O)CCC(=O)c1ccc(Cl)cc1", "TGI": "> 100 µM"}
{"compound": "C=C[C@@]1(O)CCCC2=C(C(=O)OCC)CC[C@]21C", "TGI": "> 100 µM"}
{"compound": "Cc1ccc(/C(O)=C/c2nc3ccccc3s/c2=N/CS(=O)(=O)c2ccc(C)cc2)cc1", "TGI": "> 10 µM"}
{"compound": "O=C1OC(=O)c2cc(S(=O)(=O)c3ccc4c(c3)C(=O)OC4=O)ccc21", "TGI": "> 100 µM"}
{"compound": "O=S1Nc2c(Cl)cc(Cl)c3c(Cl)cc(Cl)c(c23)N1", "TGI": "> 100 µM"}
{"compound": "O=C(O)Cc1ccc2[nH]c(O)c(C3=Nc4ccccc4C3=O)c2c1", "TGI": "48.2 µM"}
{"compound": "COc1ccc2cc(CN3CCC(C4CCNCC4)CC3)ccc2c1", "TGI": "15.2 µM"}
{"compound": "COc1cc(Nc2nc3ccccc3cc2C(=O)Nc2ccc(F)c(F)c2)cc(OC)c1OC", "TGI": "> 100 µM"}
{"compound": "Cc1cc(C)c(Cn2cnc3c(Cl)ncnc32)c(C)c1CCl", "TGI": "> 100 µM"}

###

Test system: RXF 393 renal
method.summary: NCI tumour cell line growth inhibition, 48 h; in the data active = GI50 below about 0.43 µM; inactive = the rest
Outcomes: 1.0 = active, 0.0 = inactive

{"compound": "CO[C@H](C(=O)[C@@H](O)[C@@H](C)O)[C@@H]1Cc2cc3cc(OC4CC(OC5CC(O)C(O)C(C)O5)C(O)C(C)O4)c(C)c(O)c3c(O)c2C(=O)[C@H]1OC1CC(OC2CC(OC3CC(C)(O)C(O)C(C)O3)C(O)C(C)O2)C(O)C(C)O1 (stereo not given in full)", "group": 0.0}
{"compound": "CN1C(=O)N[C@H]2[C@@H]3NC(=O)c4ccc(Br)n4[C@@H]3C[C@]21O", "group": 1.0}
{"compound": "COc1cc(Nc2nc3ccccc3cc2C(=O)Nc2ccc(F)c(F)c2)cc(OC)c1OC", "group": 0.0}
{"compound": "COc1ccc(C(=O)c2cc3c(N)c(C(=O)Nc4ccc(C)cc4)sc3nc2C)cc1", "group": 0.0}
{"compound": "CNC(=O)Cc1nc(-c2cccc(NS(=O)(=O)c3c(F)cccc3F)c2F)c(-c2ccnc(Nc3ccccc3)n2)s1", "group": 1.0}
{"compound": "COC(=O)c1cc(O)c2c(c1C(=O)OC)C[C@H]1[C@@H]3CC=C4C[C@@H](O)CC[C@]4(C)[C@H]3CC[C@]21C", "group": 0.0}
{"compound": "O=Cc1ccc(-c2ccc(-c3nc4ccccc4o3)cc2)o1", "group": 0.0}
{"compound": "COc1cc(-c2nc(-c3nc4ccccc4[nH]3)cc3c2[nH]c2ccccc23)cc(OC)c1OC", "group": 0.0}
{"compound": "COC(=O)Cc1ccc(Oc2cnc3cc(F)c(F)cc3n2)cc1", "group": 0.0}
{"compound": "N#CC1=C(N)NC(N2CCOCC2)=NC12Nc1ccccc1N2", "group": 0.0}
